Source listed as patent US20200079833A1.

Molecular target: GLP-1 receptor (GLP-1R), primary cAMP assay (human, UniProt P43220 24-463)
Experiment: cell-based or functional assay
Starred links: 1 amine or outer side, 2 acyl side, 3 side chain; linkers in the order of their positions; H or OH if unused. Non-standard residues stand in square brackets, D forms with d. Groups on a side chain read outwards from the residue. Primed or numbered codes have the meaning given here. No end group written: not given here. *: point of attachment. γGlu = O=C(O)[C@H](CCC(=O)[*:2])N[*:1]; Stearoyl = CCCCCCCCCCCCCCCCCC(=O)*; Palmitoyl = CCCCCCCCCCCCCCCC(=O)*; αMeF = C[C@](N)(Cc1ccccc1)C(=O)O; αMeK = C[C@](N)(CCCCN)C(=O)O; Lauroyl = CCCCCCCCCCCC(=O)*; αMeS = C[C@](N)(CO)C(=O)O; PEG2′ = not defined here; Aib = CC(C)(N)C(=O)O
measuredQuantity: Primary assay EC50 (cAMP), n2 (nM)

binder	valueUnit	recordedMeasurement
H[Aib]EGS[αMeF]TSDV[αMeS]SK([PEG2′-PEG2′-γGlu-Stearoyl])LEGEAA[αMeK]E[αMeF]IAK([PEG2′-PEG2′-γGlu-Stearoyl])VVEGG-NH2 [SEQ ID NO: 410]	nM	0.126
H[Aib]EGTFTSDVSK([PEG2′-PEG2′-γGlu-Palmitoyl])YLEGEAAEEFIK([PEG2′-PEG2′-γGlu-Palmitoyl])WVVEGG-NH2 [SEQ ID NO: 242]	nM	4.11
H[Aib]EGS[αMeF]TSDVSK([PEG2′-PEG2′-γGlu-Lauroyl])FLEGEAA[αMeK]EFIK([PEG2′-PEG2′-γGlu-Lauroyl])FVVEGG-NH2 [SEQ ID NO: 248]	nM	0.0062
H[Aib]EGS[αMeF]TSDV[αMeS]SK([PEG2′-PEG2′-γGlu-Lauroyl])LEGEAA[αMeK]EFIK([PEG2′-PEG2′-γGlu-Lauroyl])WVVEGG-NH2 [SEQ ID NO: 262]	nM	0.00414
H[Aib]EGS[αMeF]TSDVSK([PEG2′-PEG2′-γGlu-Lauroyl])FLEGEAAEEFIK([PEG2′-PEG2′-γGlu-Lauroyl])FVVEGG-NH2 [SEQ ID NO: 241]	nM	0.0116
H[Aib]EGS[αMeF]TSDK([PEG2′-PEG2′-γGlu-Palmitoyl])SSYLEGEAA[αMeK]EFIAWK([PEG2′-PEG2′-γGlu-Palmitoyl])VEGG-NH2 [SEQ ID NO: 261]	nM	0.422

(P) H[Aib]EGTFTSDVSK([PEG2′-PEG2′-γGlu-Palmitoyl])YLEGEAAEEFIK([PEG2′-PEG2′-γGlu-Palmitoyl])FVVEGG-NH2 [SEQ ID NO: 244]
(Q) H[Aib]EGS[αMeF]TSDV[αMeS]SK([PEG2′-PEG2′-γGlu-Palmitoyl])LEGEAA[αMeK]E[αMeF]IAK([PEG2′-PEG2′-γGlu-Palmitoyl])VVEGG-NH2 [SEQ ID NO: 409]
Ask | Quick check, higher Primary assay EC50 (cAMP), n2 between P and Q ? Your choice should be expressed through its label.
Reply | P
(P: 16.9 nM, Q: 0.0326 nM)
